- Test Name: Induction of anti-CD3/CD28 antibodies-stimulated human T cell activation at 0.3 uM assessed fold increase in IL-2 secretion measured by ELISA assay
- Type: functional, T cell line
For each of the molecules below, state its fold change (FC).
Respond using a number only.

Ask: Sample CN1CC2CC1CN2c1cc2c(c(C(F)(F)F)c1)CN(c1cccc([C@@](C)(F)C(F)(F)c3nncn3C)c1)C2=O (single isomer, unassigned; 562) — what was its fold change (FC)?
Reply: 5

Ask: Which fold change (FC) value is on record for `Cn1cnnc1[C@@H]1C[C@@H]1c1cccc(N2Cc3c(ccnc3C(F)(F)F)C2=O)c1` ?
Reply: 1.01

Ask: // lookup fold change (FC) for CN1CC2CCC1CN2c1cc2c(c(C(F)(F)F)c1)CN(c1cccc(C3(Cc4nncn4C)COC3)c1)C2=O (stereo not drawn)
Reply: 2.51

Ask: Quick one: fold change (FC) for `Cn1cnnc1CC1(c2cccc(N3Cc4c(cc(CN5CCC(C#N)CC5)cc4C(F)(F)F)C3=O)c2)COC1` ?
Reply: 5

Ask: Quick one: fold change (FC) of `C[C@H](Cc1nncn1C)c1cccc(N2Cc3c(cc(CN4CC(F)C4)cc3C(F)(F)F)C2=O)c1` ?
Reply: 2.51

Ask: For `Cn1cnnc1CC1(c2cccc(NC(=O)c3[nH]nc4c3OCCC4)c2)COC1` , what is its reported fold change (FC)?
Reply: 1.01

Ask: What value of fold change (FC) has been recorded for this entry: `Cc1nc2c(o1)CCN(Cc1cc3c(c(C(F)(F)F)c1)CN(c1cccc(C4(Cc5nncn5C)COC4)c1)C3=O)C2`
Reply: 5

* * *

- Test Name: Induction of anti-CD3/CD28 antibodies-stimulated human anergic T cell activation at 0.37 uM assessed fold increase in IFN-gamma secretion measured by ELISA assay
- Type: functional, T cell line
Measure Name: fold change (FC)

                            chemical_smiles      measure_name  observed_value
0  Cn1cnnc1[C@@H]1C[C@@H]1c1cccc(N2Cc3c(ccnc3C(F)(F)F)C2=O)c1  fold change (FC)           <=2.5
1  Cn1cnnc1[C@@H]1C[C@@H]1c1cccc(N2Cc3c(cccc3C(F)(F)F)C2=O)c1  fold change (FC)           <=2.5
2  Cn1cnnc1CC1(c2cccc(N3Cc4c(cc(CN5CCC6(CC6)C5)cc4C(F)(F)F)C3=O)c2)COC1  fold change (FC)           <=2.5
3  C[C@H](c1cc2c(c(C(F)(F)F)c1)CN(c1cccc(C3(Cc4nncn4C)COC3)c1)C2=O)N1CC[C@H](F)C1  fold change (FC)            2.51

* * *

- Test Name: Induction of anti-CD3/CD28 antibodies-stimulated human T cell activation at 0.3 uM assessed fold increase in IL-2 secretion measured by ELISA assay
- Type: functional, T cell line
Measure Name: fold change (FC)

>>> print(df.to_string())
                                   molecule  observed_value
0  Cc1conc1CC1(c2cccc(NC(=O)c3cc(CN4CCC5(CC5)C4)nc(C4CC4)n3)c2)COC1           >=7.5
1  Cn1cnnc1CC1(c2cccc(N3Cc4c(cc(CN5CCC6CC6C5)cc4C(F)(F)F)C3=O)c2)COC1 (stereo not drawn)           >=7.5
2  Cn1cnnc1CC1(c2cccc(N3Cc4c(cc(CN5CC(C)(F)C5)cc4C(F)(F)F)C3=O)c2)COC1           >=7.5

* * *

- Test Name: Induction of anti-CD3/CD28 antibodies-stimulated human T cell activation at 1 uM assessed fold increase in CD25 expression measured by ELISA assay
- Format: functional, T cell line
Measure Name: fold change (FC)

In [3]: df
Out[3]:
                                   molecule  observed_value
0  Cc1ccc(C(=O)Nc2cccc(C(C)Cc3nccn3C)c2)nc1C1CC1 (stereo in doubt; 214)             <=1
1  C[C@H](Sc1nncn1C)c1cccc(NC(=O)c2ccc(F)c(C3CC3)n2)c1             <=1

* * *

- Test Name: Induction of anti-CD3/CD28 antibodies-stimulated human T cell activation at 0.3 uM assessed fold increase in CD25 expression measured by ELISA assay
- Assay type: functional, T cell line
Measure Name: fold change (FC)

Answered cases to consult:
>>> print(df.to_string())
                                   molecule  observed_value
0  Cn1cnnc1CC1(c2cccc(N3Cc4c(cc(N5CCN6CCC[C@@H]6C5)cc4C(F)(F)F)C3=O)c2)COC1          >=1.76
1  C[C@H](Sc1nncn1C)c1cccc(NC(=O)c2cncc(C(F)(F)F)n2)c1             <=1
2  C[C@H](Cc1nncn1C)c1cc(NC2CCOC2)nc(N2Cc3c(cccc3C(F)(F)F)C2=O)c1 (single isomer, unassigned)             <=1
3  C[C@@H]1[C@@H](c2nncn2C)[C@H]1c1cccc(N2Cc3c(cccc3C(F)(F)F)C2=O)c1          >=1.76
4  Cc1cc(C(=O)Nc2cc([C@H](C)Sc3nncn3C)ccn2)nc(C(F)(F)F)c1             <=1
5  Cc1cnnn1C[C@@H](C)c1cccc(NC(=O)c2cccc(C(F)(F)F)n2)c1             <=1
6  C[C@H](Sc1nncn1C)c1ccnc(NC(=O)c2cc3c(C(F)(F)F)cccc3[nH]2)c1             <=1

Next, consider the following molecule.
Ask: Given Cc1ccc(C(=O)Nc2cccc(C(C)Cc3nccn3C)c2)nc1C1CC1 (stereo in doubt; 214) , state its recorded fold change (FC).
Reply: <=1

* * *

- Test Name: Induction of anti-CD3/CD28 antibodies-stimulated human T cell activation at 4 uM assessed fold increase in CD25 expression measured by ELISA assay
- Type: functional, T cell line
Measure Name: fold change (FC)

In [3]: df
Out[3]:
                            chemical_smiles      measure_name  observed_value
0  C[C@H](Sc1nncn1C)c1ccnc(N2Cc3c(cccc3C(F)(F)F)C2=O)c1  fold change (FC)             <=1
1  C[C@H](Cc1nncn1C)c1cccc(N2Cc3c(cc(C4CC4)nc3C3CC3)C2=O)c1  fold change (FC)          >=1.76
2  C[C@H](Cc1nncn1C)c1cccc(NC(=O)c2cncc(C(F)(F)F)n2)c1  fold change (FC)          >=1.76

* * *

- Test Name: Induction of anti-CD3/CD28 antibodies-stimulated human T cell activation at 1 uM assessed fold increase in CD25 expression measured by ELISA assay
- Format: functional, T cell line
Measure Name: fold change (FC)
Answer field: number only, no words.

Ask: Data request, read-out fold change (FC), for `Cn1cnnc1CC1(c2cccc(NC(=O)c3cc(OC(F)F)cc(C4CC4)n3)c2)COC1`
Reply: 1.01

Ask: Any idea what its fold change (FC) is? The compound is `C[C@H](Cc1nncn1C)c1cc(OCC(F)F)nc(N2Cc3c(cccc3C(F)(F)F)C2=O)c1`
Reply: 1.01

Ask: Please report the recorded fold change (FC) for `Cn1cnnc1CC1(c2cccc(N3Cc4c(cc(CN5CC[C@H](C#N)C5)cc4C(F)(F)F)C3=O)c2)COC1` .
Reply: 1.31

Ask: # fold change (FC) lookup, item `Cn1cnnc1CC1(c2cccc(N3Cc4c(cc(CN5CCCC5=O)cc4C(F)(F)F)C3=O)c2)COC1`
Reply: 1.01

Ask: Please report the recorded fold change (FC) for `Cn1cnnc1[C@@H]1C[C@@H]1c1cccc(NC(=O)c2nc3c(C(F)(F)F)cccc3[nH]2)c1` .
Reply: 1.01

Ask: # lookup: fold change (FC) of `C[C@H](Sc1nncn1C)c1cccc(NC(=O)c2cc(Cl)cc(C(F)(F)F)n2)c1`
Reply: 1.01

Ask: What measured fold change (FC) goes with `Cn1cnnc1C(F)(F)[C@](C)(F)c1cccc(N2Cc3c(cc(CN4CC[C@@H](C#N)C4)cc3C(F)(F)F)C2=O)c1` ?
Reply: 1.31

Ask: If you can, please state the reported fold change (FC) value of `Cn1cnnc1CC1(c2cccc(NC(=O)c3cc(CN4CC[C@H](F)C4)nc(C(F)(F)F)n3)c2)COC1` .
Reply: 1.01

Ask: # lookup: fold change (FC) of `COc1nc(C(=O)Nc2cccc([C@H](C)Sc3nncn3C)c2)cc2ccccc12`
Reply: 1.01

Ask: For Cn1cnnc1CC(c1cccc(N2Cc3c(cccc3C(F)(F)F)C2=O)c1)C(F)(F)F (stereo not drawn) , what is its reported fold change (FC)?
Reply: 1.01

Ask: Name the recorded fold change (FC) for `Cn1cnnc1CC1(c2cccc(N3Cc4c(cc(CN5CCC6(CC6)C5)cc4C(F)(F)F)C3=O)c2)COC1` .
Reply: 1.31

Ask: What value of fold change (FC) has been reported for the following compound? `Cc1cc(C(=O)Nc2cccc(C3(Cc4nncn4C)COC3)c2)nc(C2CC2)c1`
Reply: 1.31

Ask: Give its fold change (FC) value. Item: `Cn1cnnc1CC1(c2cccc(N3Cc4c(cc(N5CC6(C5)CC(F)(F)C6)cc4C(F)(F)F)C3=O)c2)COC1`
Reply: 1.31

Ask: Name the reported fold change (FC) value associated with the compound `Cc1conc1CC1(c2cccc(N3Cc4c(cc(CN5CCC6(CC6)C5)cc4C(F)(F)F)C3=O)c2)COC1`
Reply: 1.31

Ask: Give its fold change (FC) value. Item: `Cn1cnnc1[C@H](F)C1(c2cccc(N3Cc4c(cc(CN5CCCCC5)cc4C(F)(F)F)C3=O)c2)COC1`
Reply: 1.01

Ask: Param item = `Cn1cnnc1CC1(c2cccc(NC(=O)c3cc(CN4CC[C@H](O)C4)nc(C4CC4)n3)c2)COC1` ; retrieve measured fold change (FC).
Reply: 1.01

Ask: Data request, read-out fold change (FC), for `CNS(=O)(=O)c1cc(C(=O)Nc2cccc([C@H](C)Cc3nncn3C)c2)nc(C(F)(F)F)c1`
Reply: 1.01

Ask: # get_value(readout='fold change (FC)', item= `C[C@H](Cc1nncn1C)c1cccc(N2Cc3c(cc(C(C)(C)O)cc3C(F)(F)F)C2=O)c1` )
Reply: 1.01

Ask: Quick one: fold change (FC) of `C[C@H](Sc1nncn1C)c1cccc(N2Cc3c(cccc3C(F)(F)F)C2=O)c1` ?
Reply: 1.01

Ask: I'd like to know its fold change (FC). The compound in question is `Cc1cc(C(=O)Nc2cccc(C3(Cc4nncn4C)CC(F)(F)C3)c2)nc(C2CC2)n1`
Reply: 1.01

Ask: Give its fold change (FC) value. Item: `Cn1cnnc1CC1(c2cccc(NC(=O)c3nc(C4CC4)cs3)c2)COC1`
Reply: 1.01

Ask: I'd like to know its fold change (FC). The compound in question is CC(c1cc2c(c(C3CC3)n1)CN(c1cccc(C3(Cc4nncn4C)COC3)c1)C2=O)N1CCC2(CC2)C1 (stereo not drawn)
Reply: 1.01

Where do these numbers come from? They come from ChEMBL document CHEMBL5050844.
